conditions: in ethanol, 318.15 K
metric_name: solubility (mole fraction)
Please reply with the value in numeric form only.

Return reported solubility (mole fraction); argument: "CN1CCN(C(=O)O[C@H]2c3nccnc3C(=O)N2c2ccc(Cl)cn2)CC1"
0.000851

---

conditions: in ethanol, 323.15 K
metric_name: solubility (mole fraction)
Please reply with the value in numeric form only.

Return reported solubility (mole fraction); argument: "CN1CCN(C(=O)O[C@H]2c3nccnc3C(=O)N2c2ccc(Cl)cn2)CC1"
0.000996

---

conditions: in n-propanol, 298.15 K
metric_name: solubility (mole fraction)
Please reply with the value in numeric form only.

Return reported solubility (mole fraction); argument: "CN1CCN(C(=O)O[C@H]2c3nccnc3C(=O)N2c2ccc(Cl)cn2)CC1"
0.000215
